tested_system: canine TRPM8 (Canis lupus familiaris)
Construct: expressed in transfected cells
assay_details: In vitro canine TRPM8 functional assay (Ca2+-sensitive dye, FLIPR/FDSS, icilin activation)
Assay type: cell-based
conditions: 0.5 μM compound; HEK293 cells expressing canine TRPM8, icilin activation
measurement_type: % I (0.5 μM)

These recorded examples may help you get a feel for the data.
compound="CSc1ccc(CC(c2sc3ccccc3c2Br)P(=O)(OC(C)C)OC(C)C)cc1 (stereo not shown)" value_reported=103%
compound="COc1cc(CC(c2sc3ccccc3c2Br)P(=O)(OC(C)C)OC(C)C)c(F)cc1Cl (racemic)" value_reported=102%
compound="CC(C)OP(=O)(OC(C)C)C(Cc1ccc(C(F)(F)F)cc1F)c1sc2ccccc2c1Cl (stereo not shown)" value_reported=104%

Prompt line: Which % I (0.5 μM) is reported for this compound? CC(C)OP(=O)(OC(C)C)C(Cc1ccc(F)c(F)c1)c1sc2ncccc2c1Br (racemic)
Response line: 99%

----------
tested_system: canine TRPM8 (Canis lupus familiaris, UniProt Q1A7N1)
Construct: expressed in transfected cells
Sequence (Q1A7N1 1-1104): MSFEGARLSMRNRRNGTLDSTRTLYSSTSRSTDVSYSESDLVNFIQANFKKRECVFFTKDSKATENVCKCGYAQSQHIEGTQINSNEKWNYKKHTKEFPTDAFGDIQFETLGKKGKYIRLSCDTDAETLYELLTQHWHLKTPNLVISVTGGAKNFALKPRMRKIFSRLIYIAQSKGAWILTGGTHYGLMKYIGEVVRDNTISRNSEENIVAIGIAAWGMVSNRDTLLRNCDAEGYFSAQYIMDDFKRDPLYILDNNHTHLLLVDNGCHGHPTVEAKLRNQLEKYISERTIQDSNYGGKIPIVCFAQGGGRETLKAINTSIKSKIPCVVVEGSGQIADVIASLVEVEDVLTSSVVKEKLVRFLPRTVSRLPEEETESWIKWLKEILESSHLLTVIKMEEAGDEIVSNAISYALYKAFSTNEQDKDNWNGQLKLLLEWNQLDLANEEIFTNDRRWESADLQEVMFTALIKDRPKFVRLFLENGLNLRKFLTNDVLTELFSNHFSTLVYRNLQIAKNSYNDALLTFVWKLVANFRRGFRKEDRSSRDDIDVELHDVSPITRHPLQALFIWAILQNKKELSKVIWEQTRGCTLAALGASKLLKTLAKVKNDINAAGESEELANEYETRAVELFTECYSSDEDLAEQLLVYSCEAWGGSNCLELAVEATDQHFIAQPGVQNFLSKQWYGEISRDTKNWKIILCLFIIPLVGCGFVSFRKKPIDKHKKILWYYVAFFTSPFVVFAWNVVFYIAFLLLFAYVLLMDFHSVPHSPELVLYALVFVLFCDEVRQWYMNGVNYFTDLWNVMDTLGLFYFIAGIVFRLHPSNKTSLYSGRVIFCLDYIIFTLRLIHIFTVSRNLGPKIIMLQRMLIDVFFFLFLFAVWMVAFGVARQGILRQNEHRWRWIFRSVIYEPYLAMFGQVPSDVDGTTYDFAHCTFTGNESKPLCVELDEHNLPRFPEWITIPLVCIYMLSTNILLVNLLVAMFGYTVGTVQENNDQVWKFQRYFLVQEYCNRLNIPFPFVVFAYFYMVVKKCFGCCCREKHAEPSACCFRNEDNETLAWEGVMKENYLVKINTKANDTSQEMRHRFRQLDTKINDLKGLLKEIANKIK
assay_details: In vitro canine TRPM8 functional assay (Ca2+-sensitive dye, FLIPR/FDSS, icilin activation)
Assay type: cell-based
conditions: HEK293, 0.5 μM compound; HEK293 cells expressing canine TRPM8, icilin activation; read-out: % I (0.5 μM)
Protocol: The functional activity of compounds of Formula (I) was determined by measuring changes in intracellular calcium concentration using a Ca^2+-sensitive fluorescent dye. The changes in fluorescent signal were monitored by a fluorescence plate reader, either a FLIPR™ (Molecular Devices) or FDSS (Hamamatsu). […] Basal FI was subtracted prior to normalizing data to percent of maximal response. […] Finally, the EC50 and IC50 values were calculated with the best-fit dose curve determined by GraphPad Prism.
Each item that follows carries a reported inhibition at 0.5 µM.
Respond with a number, then the unit of measure.

molecule="CC(C)OP(=O)(OC(C)C)C(Cc1ccc(F)c(C(F)(F)F)c1)c1sc2ccccc2c1Br (stereo not drawn) [Cpd 241]" tested_system="canine TRPM8 (Canis lupus familiaris, UniProt Q1A7N1)" value_reported=102%
molecule="CC(C)OP(=O)(OC(C)C)[C@H](Cc1ccc(F)c(C(F)(F)F)c1)c1sc2ccccc2c1Br [Cpd 243]" tested_system="canine TRPM8 (Canis lupus familiaris, UniProt Q1A7N1)" value_reported=80%
molecule="CC(C)OP(=O)(OC(C)C)C(Cc1ccc(F)c(F)c1)c1sc2cccc(F)c2c1Br (stereo not drawn) [Cpd 221]" tested_system="canine TRPM8 (Canis lupus familiaris, UniProt Q1A7N1)" value_reported=102%
molecule="CC(C)OP(=O)(OC(C)C)/C(=C/c1ccc(F)c(F)c1)c1cc2ccccc2s1 [Cpd 333]" tested_system="canine TRPM8 (Canis lupus familiaris, UniProt Q1A7N1)" value_reported=95%
molecule="COC(=O)COP(=O)(OCC(=O)OC)C(Cc1ccc(F)c(F)c1)c1sc2ccccc2c1Br (stereo not drawn) [Cpd 212]" tested_system="canine TRPM8 (Canis lupus familiaris, UniProt Q1A7N1)" value_reported=102%

// moving on: another record for inhibition at 0.5 µM
Prompt line: // returns reported inhibition at 0.5 µM for input CC(C)OP(=O)(OC(C)C)C(Cc1ccc(F)c(C(F)(F)F)c1)c1c(Br)c2ccccc2n1C (stereo not drawn) [Cpd 328]
Response line: 102%

Value source: patent US20080287398A1
